experiment: duplex melting temperature (HRM, EvaGreen); higher = more stable duplex; conditions: duplex concentration 15 µM; backbone: PS-PS (both strands fully phosphorothioate)
Label Condition met for high-side duplex melting temperature (at or above 60 °C) and Condition not met for low-side duplex melting temperature (below it).

QUERY: hey, is duplex melting temperature for this one >= 60 °C? GTGAAACAATGCTGTAG
RESULT: Condition not met

QUERY: hey, is duplex melting temperature for this one >= 60 °C? ACATGACTCATCTTAGCCGGCGAG
RESULT: Condition met

QUERY: hey, is duplex melting temperature for this one >= 60 °C? GGACGGCGTT
RESULT: Condition not met

QUERY: hey, is duplex melting temperature for this one >= 60 °C? AACGAATGTCAGCAATT
RESULT: Condition not met

QUERY: hey, is duplex melting temperature for this one >= 60 °C? GTCATTGTGCTTTTGC
RESULT: Condition not met

QUERY: hey, is duplex melting temperature for this one >= 60 °C? GCAGGAGCCGCGACCTG
RESULT: Condition met

QUERY: hey, is duplex melting temperature for this one >= 60 °C? CCCAGGCCTCGGATTTA
RESULT: Condition met

QUERY: hey, is duplex melting temperature for this one >= 60 °C? ACTCGCTCTACCTTAAT
RESULT: Condition not met

QUERY: hey, is duplex melting temperature for this one >= 60 °C? AGCTGAGCCTGCCGCC
RESULT: Condition met

QUERY: hey, is duplex melting temperature for this one >= 60 °C? GCTGAACTAACCACCA
RESULT: Condition not met

QUERY: hey, is duplex melting temperature for this one >= 60 °C? TTTGGGTTAGTAAGAAGGCAGCAGTTGGGC
RESULT: Condition met

QUERY: hey, is duplex melting temperature for this one >= 60 °C? CTCGGAGGCCCCATTTA
RESULT: Condition met

QUERY: hey, is duplex melting temperature for this one >= 60 °C? AATGAGGAGTGAAATGG
RESULT: Condition not met

QUERY: hey, is duplex melting temperature for this one >= 60 °C? TCTACACCGCGA
RESULT: Condition not met

QUERY: hey, is duplex melting temperature for this one >= 60 °C? CCGCTCAGAGTAGAGA
RESULT: Condition not met

QUERY: hey, is duplex melting temperature for this one >= 60 °C? GTGGTACAAATGCGACC
RESULT: Condition not met

QUERY: hey, is duplex melting temperature for this one >= 60 °C? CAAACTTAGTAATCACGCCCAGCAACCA
RESULT: Condition met

QUERY: hey, is duplex melting temperature for this one >= 60 °C? CGACATGTATGGCACAG
RESULT: Condition not met

QUERY: hey, is duplex melting temperature for this one >= 60 °C? AATGTCGAACAGCAATT
RESULT: Condition not met
